TEST PROTOCOL: Aqueous solubility of the compound in water
MEASURED PARAMETER: solubility

smiles_code=CC(C)c1cccc(C(C)C)c1O observed="1000 µM"

====

Catalogue of molecules with associated EC50
TARGET UNDER TEST: GABA-A receptor; agonist GABA site
TEST PROTOCOL: Agonist activity at human alpha1beta2gamma2L GABAA receptor expressed in Xenopus oocytes assessed as potentiation of GABA-induced current response by two-electrode voltage clamp electrophysiology assay
Assay type: functional, cell-based
MEASUREMENT PARAMETERS: oocyte
MEASURED PARAMETER: EC50

smiles_code=CC(C)c1cc(CCCC2(C)N=N2)cc(C(C)C)c1O observed="4.5 µM"
smiles_code=CC(C)c1cccc(C(C)C)c1O observed="5.2 µM"
